- tgt: UniProt O60678
- Sequence (O60678 whole entry): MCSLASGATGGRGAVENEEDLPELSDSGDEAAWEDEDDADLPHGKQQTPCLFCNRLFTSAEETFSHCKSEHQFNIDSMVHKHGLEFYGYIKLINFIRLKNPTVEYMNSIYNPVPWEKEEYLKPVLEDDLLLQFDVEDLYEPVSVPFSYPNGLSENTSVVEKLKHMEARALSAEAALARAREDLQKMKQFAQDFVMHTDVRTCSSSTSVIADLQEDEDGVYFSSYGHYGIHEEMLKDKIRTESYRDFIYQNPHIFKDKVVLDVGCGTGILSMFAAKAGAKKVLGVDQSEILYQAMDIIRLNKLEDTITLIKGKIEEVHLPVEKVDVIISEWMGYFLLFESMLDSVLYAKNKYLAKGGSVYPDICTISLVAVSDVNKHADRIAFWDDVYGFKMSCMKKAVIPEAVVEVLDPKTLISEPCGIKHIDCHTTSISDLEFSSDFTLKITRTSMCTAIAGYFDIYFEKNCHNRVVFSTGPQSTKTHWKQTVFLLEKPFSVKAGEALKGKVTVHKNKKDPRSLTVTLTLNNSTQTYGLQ
measure name: IC50 (nM)
Record the value in nM, omitting the unit from your answer.

Retrieve IC50 on UniProt O60678; query CNC[C@H](O)CN(C)Cc1ccccc1OCc1ccc(-c2nccs2)c(Cl)c1
942

* * *

- tgt: Protein arginine N-methyltransferase 6 (Homo sapiens)
- Sequence (Q96LA8 whole entry): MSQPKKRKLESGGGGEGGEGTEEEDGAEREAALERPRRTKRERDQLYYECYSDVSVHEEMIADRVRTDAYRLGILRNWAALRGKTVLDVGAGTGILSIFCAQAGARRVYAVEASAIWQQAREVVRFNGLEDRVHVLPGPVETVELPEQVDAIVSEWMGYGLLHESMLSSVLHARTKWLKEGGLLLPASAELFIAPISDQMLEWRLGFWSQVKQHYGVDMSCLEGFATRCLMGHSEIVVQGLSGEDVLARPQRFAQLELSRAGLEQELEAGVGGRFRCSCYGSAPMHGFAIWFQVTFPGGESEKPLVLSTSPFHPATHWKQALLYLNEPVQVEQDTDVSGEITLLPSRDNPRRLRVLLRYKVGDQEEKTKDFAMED
measure name: IC50 (nM)
Reply with just the number (in nM).

For Protein arginine N-methyltransferase 6 (Homo sapiens), give the measured IC50 of the entry CNC[C@H](O)CN(C)Cc1ccccc1OCc1ccc(-c2nccs2)c(Cl)c1
64

* * *

- tgt: Histone-arginine methyltransferase CARM1 (Homo sapiens)
- Sequence (Q86X55 whole entry): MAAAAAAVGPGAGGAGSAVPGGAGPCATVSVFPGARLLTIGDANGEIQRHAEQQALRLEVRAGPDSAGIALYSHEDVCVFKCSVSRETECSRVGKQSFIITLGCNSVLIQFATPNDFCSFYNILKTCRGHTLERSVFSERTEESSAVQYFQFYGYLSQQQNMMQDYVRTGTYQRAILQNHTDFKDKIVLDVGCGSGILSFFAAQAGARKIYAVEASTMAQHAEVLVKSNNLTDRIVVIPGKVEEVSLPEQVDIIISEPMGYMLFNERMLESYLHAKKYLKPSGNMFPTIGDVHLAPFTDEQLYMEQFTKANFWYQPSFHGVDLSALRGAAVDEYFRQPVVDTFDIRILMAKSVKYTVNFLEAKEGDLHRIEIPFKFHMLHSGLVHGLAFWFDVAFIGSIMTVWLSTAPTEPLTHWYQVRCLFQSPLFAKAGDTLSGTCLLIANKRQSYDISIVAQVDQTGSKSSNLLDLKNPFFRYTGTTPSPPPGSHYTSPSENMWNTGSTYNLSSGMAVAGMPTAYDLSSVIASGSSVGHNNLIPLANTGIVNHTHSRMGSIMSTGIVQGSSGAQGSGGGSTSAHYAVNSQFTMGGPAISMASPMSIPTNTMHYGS
measure name: IC50 (nM)
Record the value in nM, omitting the unit from your answer.

System Histone-arginine methyltransferase CARM1 (Homo sapiens). Read-out IC50. Item CNCC(O)CN1CCc2c(cccc2OCc2ccc(-c3nccs3)cc2)C1 (stereo unspecified) . Report value.
21

* * *

- tgt: Protein arginine N-methyltransferase 8 (Homo sapiens, UniProt Q9NR22)
- Sequence (Q9NR22 whole entry): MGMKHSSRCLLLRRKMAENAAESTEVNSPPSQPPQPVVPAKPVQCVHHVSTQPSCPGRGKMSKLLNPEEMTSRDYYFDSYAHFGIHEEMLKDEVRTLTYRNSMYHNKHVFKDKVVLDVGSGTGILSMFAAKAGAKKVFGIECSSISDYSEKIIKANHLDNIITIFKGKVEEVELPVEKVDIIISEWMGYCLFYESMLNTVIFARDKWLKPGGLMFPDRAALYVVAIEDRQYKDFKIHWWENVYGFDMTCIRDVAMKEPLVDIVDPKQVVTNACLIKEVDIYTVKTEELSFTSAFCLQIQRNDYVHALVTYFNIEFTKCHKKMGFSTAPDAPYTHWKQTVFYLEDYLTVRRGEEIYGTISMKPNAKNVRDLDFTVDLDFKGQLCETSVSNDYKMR
measure name: IC50
Answer with the value and then the unit.

Consider the molecule CNC[C@H](O)CN(C)Cc1ccccc1OCc1ccc(-c2nccs2)c(Cl)c1 and give its recorded IC50.
73 nM
